Values compiled from paper PMC6337383.

# MEASUREMENT TARGET: recombinant human LAT1 (Homo sapiens)
# Construct: made in house; host or cells: E. coli
# ASSAY METHOD TEXT: Inhibition of LAT1 mediated [3H]-His transport in proteoliposomes reconstituted with recombinant purified human LAT1
# Format: biochemical
# STUDY CONDITIONS: 100 µM compound
ASSAY ENDPOINT: inhibition at 100 µM

Worked examples, 8 compounds total:
- COMPOUND: "NC(CSCc1cccc2ccccc12)C(=O)O (stereo not drawn)"
  VAL: "80 to 90%"
- COMPOUND: "N[C@@H](Cc1cccc(C(F)(F)F)c1)C(=O)O"
  VAL: "80 to 90%"
- COMPOUND: "N[C@@H](Cc1c[nH]c2ccc(OCc3ccccc3)cc12)C(=O)O"
  VAL: "> 90%"
- COMPOUND: "NC(Cc1cccc(OCc2ccccc2)c1)C(=O)O (stereo not drawn)"
  VAL: "80 to 90%"
- COMPOUND: "COc1ccc(CSCC(N)C(=O)O)cc1Br (stereo not drawn)"
  VAL: "80 to 100%"
- COMPOUND: "N[C@@H](CSC(c1ccccc1)(c1ccccc1)c1ccccc1)C(=O)O"
  VAL: "80 to 90%"
- COMPOUND: "N[C@@H](CCc1cc(Cl)cc(Cl)c1)C(=O)O"
  VAL: "> 90%"
- COMPOUND: "N[C@@H](Cc1cn(Cc2ccccc2)cn1)C(=O)O"
  VAL: "80 to 90%"

Shift focus to the following entry.
Request: // inhibition at 100 µM lookup, key: N[C@@H](Cc1ccc(OCc2c(Cl)cccc2Cl)cc1)C(=O)O
Response: 80 to 90%

* * *

% Residual Activity values by entry
# MEASUREMENT TARGET: recombinant human LAT1 (Homo sapiens, UniProt Q01650)
# Construct: made in house; host or cells: E. coli
# Sequence (Q01650 whole entry): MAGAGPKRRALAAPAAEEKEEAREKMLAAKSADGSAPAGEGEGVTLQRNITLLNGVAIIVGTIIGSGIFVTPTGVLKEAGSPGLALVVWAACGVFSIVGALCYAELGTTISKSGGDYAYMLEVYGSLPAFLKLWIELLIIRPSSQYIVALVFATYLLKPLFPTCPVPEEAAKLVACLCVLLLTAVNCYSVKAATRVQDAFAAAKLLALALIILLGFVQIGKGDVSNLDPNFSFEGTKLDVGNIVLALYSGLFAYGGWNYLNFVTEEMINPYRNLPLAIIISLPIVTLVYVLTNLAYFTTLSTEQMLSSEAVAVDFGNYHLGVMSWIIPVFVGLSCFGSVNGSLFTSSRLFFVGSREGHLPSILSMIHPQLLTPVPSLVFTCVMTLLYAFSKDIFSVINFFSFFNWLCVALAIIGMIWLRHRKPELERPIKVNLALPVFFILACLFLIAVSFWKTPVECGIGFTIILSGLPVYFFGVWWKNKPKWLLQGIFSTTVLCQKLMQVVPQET
# ASSAY METHOD TEXT: Inhibition of LAT1 mediated [3H]-His transport in proteoliposomes reconstituted with recombinant purified human LAT1
# Format: biochemical
# STUDY CONDITIONS: 100 µM concentration, n = 3, Table S6
Value expressed in %; do not type the unit.

Request: // % Residual Activity lookup, key: CCn1cnnc1C(C)NC(=O)c1ccc2[nH]c(=O)c(=O)[nH]c2c1 (stereo not drawn)
Response: 95.1

Request: // % Residual Activity lookup, key: O=C(O)[C@@H]1C[C@H](n2cc(-c3ccccn3)nn2)CN1
Response: 94.12

* * *

# MEASUREMENT TARGET: recombinant human LAT1 (Homo sapiens)
# Construct: made in house; host or cells: E. coli
# ASSAY METHOD TEXT: Inhibition of LAT1 mediated [3H]-His transport in proteoliposomes reconstituted with recombinant purified human LAT1
# Assay type: biochemical
# STUDY CONDITIONS: 100 µM concentration, n = 3, Table S6
% Residual Activity values by entry
Value expressed in %; do not type the unit.

Worked examples, 5 compounds total:
- COMPOUND: "N[C@@H](Cc1ccc(OCc2c(Cl)cccc2Cl)cc1)C(=O)O"
  MEASUREMENT TARGET: "recombinant human LAT1 (Homo sapiens)"
  UNIT STRING: "%"
  % Residual Activity: 13.17
- COMPOUND: "CN1CCCC(n2nc(Cc3ccc(Cl)cc3)c3ccccc3c2=O)CC1 (stereo not shown)"
  MEASUREMENT TARGET: "recombinant human LAT1 (Homo sapiens)"
  UNIT STRING: "%"
  % Residual Activity: 94.08
- COMPOUND: "NC(CSCc1cccc2ccccc12)C(=O)O (stereo not shown)"
  MEASUREMENT TARGET: "recombinant human LAT1 (Homo sapiens)"
  UNIT STRING: "%"
  % Residual Activity: 17.86
- COMPOUND: "CCOc1ccccc1CN(Cc1cc(O)c(OC)cn1)C1CC1"
  MEASUREMENT TARGET: "recombinant human LAT1 (Homo sapiens)"
  UNIT STRING: "%"
  % Residual Activity: 93.06
- COMPOUND: "C=CCN(Cc1cccc(OCC(N)=O)c1)Cc1ccccc1C"
  MEASUREMENT TARGET: "recombinant human LAT1 (Homo sapiens)"
  UNIT STRING: "%"
  % Residual Activity: 92.21

Request: Quick check: % Residual Activity on recombinant human LAT1 (Homo sapiens), item N[C@@H](CSC(c1ccccc1)(c1ccccc1)c1ccccc1)C(=O)O ?
Response: 11.76

Request: Quick check: % Residual Activity on recombinant human LAT1 (Homo sapiens), item N[C@@H](Cc1ccc2ccccc2n1)C(=O)O ?
Response: 65.31
